# assayed_system: NLRP3 (Homo sapiens, UniProt Q96P20)
# Sequence (Q96P20 whole entry): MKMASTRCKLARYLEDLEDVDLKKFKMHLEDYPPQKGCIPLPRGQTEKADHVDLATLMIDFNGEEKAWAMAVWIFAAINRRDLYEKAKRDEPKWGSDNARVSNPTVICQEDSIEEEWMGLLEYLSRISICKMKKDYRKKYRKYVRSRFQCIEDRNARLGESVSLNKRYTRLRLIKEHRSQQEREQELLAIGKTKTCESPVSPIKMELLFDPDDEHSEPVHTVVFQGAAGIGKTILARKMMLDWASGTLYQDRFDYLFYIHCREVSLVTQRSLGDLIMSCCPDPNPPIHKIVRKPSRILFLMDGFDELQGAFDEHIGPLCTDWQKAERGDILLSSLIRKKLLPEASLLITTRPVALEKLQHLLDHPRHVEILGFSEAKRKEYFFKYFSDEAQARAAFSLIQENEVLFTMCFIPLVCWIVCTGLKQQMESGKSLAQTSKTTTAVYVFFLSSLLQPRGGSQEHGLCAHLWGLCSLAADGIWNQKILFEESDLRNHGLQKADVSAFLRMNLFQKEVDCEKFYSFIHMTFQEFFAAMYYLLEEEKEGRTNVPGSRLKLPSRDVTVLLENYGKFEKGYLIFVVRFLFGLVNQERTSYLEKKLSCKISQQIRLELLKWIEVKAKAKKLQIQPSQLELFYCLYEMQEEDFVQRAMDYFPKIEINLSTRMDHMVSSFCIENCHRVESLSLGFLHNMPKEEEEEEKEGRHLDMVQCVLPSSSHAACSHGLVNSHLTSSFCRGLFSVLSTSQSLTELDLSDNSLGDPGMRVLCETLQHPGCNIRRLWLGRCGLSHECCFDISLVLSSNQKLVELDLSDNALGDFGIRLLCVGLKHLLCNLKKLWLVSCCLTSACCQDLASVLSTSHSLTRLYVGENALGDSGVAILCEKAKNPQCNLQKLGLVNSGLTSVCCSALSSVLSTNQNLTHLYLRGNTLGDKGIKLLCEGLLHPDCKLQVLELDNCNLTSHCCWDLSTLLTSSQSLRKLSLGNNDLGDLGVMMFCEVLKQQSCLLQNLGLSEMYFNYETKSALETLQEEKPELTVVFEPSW
# protocol_notes: Human whole blood IL1β release assay
# Assay type: cell-based
# Design: Human whole blood in Li-heparin tubes was obtained from healthy donors; from tissue; host or cells: human whole blood from healthy donors, LPS-primed, nigericin-stimulated
# condition_label: human whole blood, 1 μg/ml LPS, compound 3 hrs, nigericin 10 μM 1 hr, IL-1β AlphaLisa; read-out: HWB IC50
pIC50: −log10 of the molar value. Counter-ions that a name gives are not always drawn.
readout_name: pIC50

See these solved cases before continuing.
COc1cc(-c2ccc3c(c2NC(=O)NS(=O)(=O)c2ccn(C(C)(C)CN(C)C)n2)CCC3)ccn1 | > 6.40
N#CCn1ccc(S(=O)(=O)NC(=O)Nc2c3c(cc4c2CCC4)CCC3)n1 | > 5.49
CN(CC#N)C(=O)c1cc(S(=O)(=O)NC(=O)Nc2c3c(cc4c2CCC4)CCC3)nn1C [Example 153, ammonium salt] | > 5.80
CN(C)C(=O)c1cc(S(=O)(=O)NC(=O)Nc2c3c(cc4c2CCC4)CCC3)nn1C [Example 169, sodium salt] | > 6.40
Cn1nc(S(=O)(=O)NC(=O)Nc2c3c(cc4c2CCC4)CCC3)cc1C(=O)N1CCC1 | > 5.49
CCN(C)C(=O)c1cc(S(=O)(=O)NC(=O)Nc2c(C(C)C)cc(F)cc2C(C)C)nn1C [Example 149, sodium salt] | > 6.10
CC(C)c1cc(F)cc(-c2cccnc2)c1NC(=O)NS(=O)(=O)c1ccn(CCN(C)C)n1 | > 6.10
CC(C)c1cccc(C(C)C)c1NC(=O)NS(=O)(=O)c1cc(C(=O)N(C)C(C)C)n(C)n1 | > 6.10
CC(C)N(C)C(=O)c1cc(S(=O)(=O)NC(=O)Nc2c3c(cc4c2CCC4)CCC3)nn1C | > 5.49
CN(C)CC(C)(C)n1ccc(S(=O)(=O)NC(=O)Nc2c(-c3ccnc(OC4CC4)c3)ccc3c2CCO3)n1 [Example 192, sodium salt] | > 6.40

**Query** Query: pIC50; subject: CC(C)(C#N)n1ccc(S(=O)(=O)NC(=O)Nc2c(-c3ccnc(OC(F)F)c3)ccc3c2CCO3)n1
**Result** > 6.40

**Query** Query: pIC50; subject: CC(C)c1cccc(C(C)C)c1NC(=O)NS(=O)(=O)c1cc(C(=O)N(C)C2CC2)n(C)n1
**Result** > 5.80

**Query** Query: pIC50; subject: CC(C)c1cc(F)cc(C(C)C)c1NC(=O)NS(=O)(=O)c1cc(C(=O)N(C)C)n(C)n1 [Example 160, sodium salt]
**Result** > 6.40

**Query** Query: pIC50; subject: CN(C)CC(C)(C)n1ccc(S(=O)(=O)NC(=O)Nc2c(-c3ccnc(C#N)c3)ccc3c2CCC3)n1
**Result** > 6.40

**Query** Query: pIC50; subject: COc1cc(-c2cc(F)c3c(c2NC(=O)NS(=O)(=O)c2ccn(CCN(C)C)n2)CCC3)ccn1
**Result** > 6.40

###

# protocol_notes: Pharmacokinetic parameters in male Sprague Dawley rats (intravenous and oral administration)
# Assay type: in vivo
# condition_label: intravenous administration, rat plasma; dose per compound (mg/kg)
Counter-ions that a name gives are not always drawn.
readout_name: Cl (mL/min/kg)

CC(C)c1cc(F)cc(-c2cccnc2)c1NC(=O)NS(=O)(=O)c1cc(C(=O)N(C)C)n(C)n1 [Example 141, sodium salt] | 60.7
CC(C)c1cc(F)cc(-c2cccnc2)c1NC(=O)NS(=O)(=O)c1cc(CN(C)C)n(C)n1 | 64.9
CC(C)c1cc(F)cc(-c2cnn(C)c2)c1NC(=O)NS(=O)(=O)c1cc(C(=O)N(C)C)n(C)n1 [Example 135, sodium salt] | 25.2

a = CCN(C)C(=O)c1cc(S(=O)(=O)NC(=O)Nc2c3c(cc4c2CCC4)CCC3)nn1C
b = CN(CCO)Cc1cc(S(=O)(=O)NC(=O)Nc2c3c(cc4c2CCC4)CCC3)nn1C
**Query** Higher Cl between a and b ? Write the label of whichever entry you select.
**Result** a

1 = CC(C)n1nc(S(=O)(=O)NC(=O)Nc2c3c(cc4c2CCC4)CCC3)cc1C(=O)N1CCC1 [Example 131, ammonium salt]
2 = CN(C)C(=O)c1cc(S(=O)(=O)NC(=O)Nc2c3c(cc4c2CCC4)CCC3)nn1C [Example 169, sodium salt]
**Query** Higher Cl between 1 and 2 ? Write the label of whichever entry you select.
**Result** 1
(1: 55.3 mL/min/kg, 2: 24.8 mL/min/kg)

I = CC(C)c1cc(F)cc(C2CCOCC2)c1NC(=O)NS(=O)(=O)c1cc(C(=O)N(C)C)n(C)n1 [Example 133, sodium salt]
II = CC(C)c1cc(Cl)cc(C(C)C)c1NC(=O)NS(=O)(=O)c1cc(C(=O)N(C)C)n(C)n1
**Query** Quick one: lower Cl, I or II ? Write the label of whichever entry you select.
**Result** I

P = Cc1cc(-c2cc(F)cc(C(C)C)c2NC(=O)NS(=O)(=O)c2cc(CN(C)C)n(C)n2)n(C)n1
Q = CN(CCO)C(=O)c1cc(S(=O)(=O)NC(=O)Nc2c3c(cc4c2CCC4)CCC3)nn1C [Example 176, ammonium salt]
**Query** Higher Cl between P and Q ? Write the label of whichever entry you select.
**Result** Q

Data origin: patent US11613542B2
